compounds and their reported IC50
SYSTEM TESTED: KDR (Homo sapiens)
Sequence (P35968 20-1356): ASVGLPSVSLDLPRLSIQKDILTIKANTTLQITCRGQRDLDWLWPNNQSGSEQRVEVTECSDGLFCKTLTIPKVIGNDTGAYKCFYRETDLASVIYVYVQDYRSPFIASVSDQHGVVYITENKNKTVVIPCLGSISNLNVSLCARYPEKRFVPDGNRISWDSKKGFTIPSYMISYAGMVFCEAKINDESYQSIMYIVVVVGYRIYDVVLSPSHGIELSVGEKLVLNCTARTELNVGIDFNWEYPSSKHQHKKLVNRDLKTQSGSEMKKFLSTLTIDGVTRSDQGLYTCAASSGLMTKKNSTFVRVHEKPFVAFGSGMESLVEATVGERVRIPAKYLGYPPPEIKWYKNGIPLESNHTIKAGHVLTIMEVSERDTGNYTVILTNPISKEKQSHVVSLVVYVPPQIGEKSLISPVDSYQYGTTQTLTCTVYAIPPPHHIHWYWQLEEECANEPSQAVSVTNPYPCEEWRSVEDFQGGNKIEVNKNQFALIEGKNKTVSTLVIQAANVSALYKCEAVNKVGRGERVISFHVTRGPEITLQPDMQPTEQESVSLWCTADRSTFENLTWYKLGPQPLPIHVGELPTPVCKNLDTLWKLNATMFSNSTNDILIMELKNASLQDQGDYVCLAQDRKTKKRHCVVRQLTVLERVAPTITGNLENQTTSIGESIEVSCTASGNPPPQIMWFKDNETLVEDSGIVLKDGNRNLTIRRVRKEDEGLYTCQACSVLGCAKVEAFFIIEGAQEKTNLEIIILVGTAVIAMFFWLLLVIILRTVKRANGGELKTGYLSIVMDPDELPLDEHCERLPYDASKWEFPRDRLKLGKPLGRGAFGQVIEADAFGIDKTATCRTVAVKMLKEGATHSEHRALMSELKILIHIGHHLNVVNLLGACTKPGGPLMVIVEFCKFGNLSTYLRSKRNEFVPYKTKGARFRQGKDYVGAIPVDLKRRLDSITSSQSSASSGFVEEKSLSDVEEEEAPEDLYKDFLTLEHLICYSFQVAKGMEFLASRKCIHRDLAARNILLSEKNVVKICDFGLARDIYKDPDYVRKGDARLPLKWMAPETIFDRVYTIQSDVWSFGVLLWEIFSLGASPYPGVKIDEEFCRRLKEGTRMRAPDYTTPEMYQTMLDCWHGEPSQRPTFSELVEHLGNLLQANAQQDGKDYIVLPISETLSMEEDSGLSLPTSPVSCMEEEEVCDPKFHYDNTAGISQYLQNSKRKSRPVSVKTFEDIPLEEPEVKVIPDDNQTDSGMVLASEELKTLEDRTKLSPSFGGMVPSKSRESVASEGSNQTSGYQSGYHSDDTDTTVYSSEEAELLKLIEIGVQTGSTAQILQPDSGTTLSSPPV
ASSAY SUMMARY: KDR autophosphorylation ELISA in HUVEC cells
Format: cell-based
Parameters: endogenous in cells; host or cells: HUVEC (Lonza #C2519A)
ASSAY CONDITIONS: Table 3 Cellular Activities, VEGF165-stimulated, phospho-KDR ELISA

Completed entries (count: 5):
In [3]: df
Out[3]:
                                   compound          result
0  COCCOc1cnc2c(Oc3ccc(NC(=O)c4c(C)n(C)c(C)c(-c5ccco5)c4=O)cc3F)ccnc2c1 [Compound 266]  300 to 1000 nM
1  CCc1c(C(=O)Nc2ccc(Oc3ccnc4cc(OC)c(OC)nc34)c(F)c2)c(=O)c(-c2ccco2)c(C)n1C [Compound 324]        ≤ 100 nM
2  COc1cc2nccc(Oc3ccc(NC(=O)c4c(C)ncc(-c5ccc(C)s5)c4O)cc3F)c2nc1OC [Compound 124]        ≤ 100 nM
3  COc1cc2nccc(Oc3ccc(NC(=O)c4c(C)nc(C)c(-c5ccc(F)cn5)c4O)cc3)c2nc1OC [Compound 216]        ≤ 100 nM
4  COc1cc2nccc(Oc3ccc(NC(=O)c4ccc(C)n(-c5cccnc5)c4=O)cc3F)c2nc1OC [Compound 222]        ≤ 100 nM

COCCOc1cc2nccc(Oc3ccc(NC(=O)c4cnc(C)c(-c5ccco5)c4O)cc3F)c2nc1OC [Compound 260] has a reported IC50 of ≤ 100 nM

COc1cnc2c(Oc3ccc(NC(=O)c4c(C)n(C)cc(-c5ccc(F)cn5)c4=O)cc3F)ccnc2c1 [Compound 73] has a reported IC50 of 300 to 1000 nM

COc1cc2nccc(Oc3ccc(NC(=O)c4c(C)nc(C)c(-c5ccc(C(C)C)o5)c4O)cc3F)c2nc1OC [Compound 148] has a reported IC50 of ≤ 100 nM

COc1cc2nccc(Oc3ccc(NC(=O)c4c5n(cc(-c6ccoc6)c4=O)CCOC5)cc3)c2nc1OC [Compound 310] has a reported IC50 of 300 to 1000 nM

COc1cc2nccc(Oc3ccc(NC(=O)c4cn(CCF)c(C)c(-c5ccco5)c4=O)cc3F)c2nc1OC [Compound 333] has a reported IC50 of 100 to 300 nM

COCc1nc(C)c(-c2ccccn2)c(O)c1C(=O)Nc1ccc(Oc2ccnc3cc(OC)c(OC)nc23)c(F)c1 [Compound 195] has a reported IC50 of ≤ 100 nM

C=C(C)c1ccc(-c2c(C)ncc(C(=O)Nc3ccc(Oc4ccnc5cc(OC)c(OC)nc45)c(F)c3)c2O)o1 [Compound 152] has a reported IC50 of ≤ 100 nM

COc1cc2nccc(Oc3ccc(NC(=O)c4c5n(cc(-c6ccsc6)c4=O)CCOC5)cc3F)c2nc1OC [Compound 300] has a reported IC50 of 100 to 300 nM

COc1cc2nccc(Oc3ccc(NC(=O)c4cnc(C)c(-c5cccs5)c4O)cc3)c2nc1OC [Compound 256] has a reported IC50 of ≤ 100 nM

COCc1nc(C)c(-c2cccs2)c(O)c1C(=O)Nc1ccc(Oc2ccnc3cc(OC)c(OC)nc23)c(F)c1 [Compound 115] has a reported IC50 of ≤ 100 nM

---

molecules and their reported IC50
SYSTEM TESTED: Met (Homo sapiens)
Sequence (P08581 25-1390): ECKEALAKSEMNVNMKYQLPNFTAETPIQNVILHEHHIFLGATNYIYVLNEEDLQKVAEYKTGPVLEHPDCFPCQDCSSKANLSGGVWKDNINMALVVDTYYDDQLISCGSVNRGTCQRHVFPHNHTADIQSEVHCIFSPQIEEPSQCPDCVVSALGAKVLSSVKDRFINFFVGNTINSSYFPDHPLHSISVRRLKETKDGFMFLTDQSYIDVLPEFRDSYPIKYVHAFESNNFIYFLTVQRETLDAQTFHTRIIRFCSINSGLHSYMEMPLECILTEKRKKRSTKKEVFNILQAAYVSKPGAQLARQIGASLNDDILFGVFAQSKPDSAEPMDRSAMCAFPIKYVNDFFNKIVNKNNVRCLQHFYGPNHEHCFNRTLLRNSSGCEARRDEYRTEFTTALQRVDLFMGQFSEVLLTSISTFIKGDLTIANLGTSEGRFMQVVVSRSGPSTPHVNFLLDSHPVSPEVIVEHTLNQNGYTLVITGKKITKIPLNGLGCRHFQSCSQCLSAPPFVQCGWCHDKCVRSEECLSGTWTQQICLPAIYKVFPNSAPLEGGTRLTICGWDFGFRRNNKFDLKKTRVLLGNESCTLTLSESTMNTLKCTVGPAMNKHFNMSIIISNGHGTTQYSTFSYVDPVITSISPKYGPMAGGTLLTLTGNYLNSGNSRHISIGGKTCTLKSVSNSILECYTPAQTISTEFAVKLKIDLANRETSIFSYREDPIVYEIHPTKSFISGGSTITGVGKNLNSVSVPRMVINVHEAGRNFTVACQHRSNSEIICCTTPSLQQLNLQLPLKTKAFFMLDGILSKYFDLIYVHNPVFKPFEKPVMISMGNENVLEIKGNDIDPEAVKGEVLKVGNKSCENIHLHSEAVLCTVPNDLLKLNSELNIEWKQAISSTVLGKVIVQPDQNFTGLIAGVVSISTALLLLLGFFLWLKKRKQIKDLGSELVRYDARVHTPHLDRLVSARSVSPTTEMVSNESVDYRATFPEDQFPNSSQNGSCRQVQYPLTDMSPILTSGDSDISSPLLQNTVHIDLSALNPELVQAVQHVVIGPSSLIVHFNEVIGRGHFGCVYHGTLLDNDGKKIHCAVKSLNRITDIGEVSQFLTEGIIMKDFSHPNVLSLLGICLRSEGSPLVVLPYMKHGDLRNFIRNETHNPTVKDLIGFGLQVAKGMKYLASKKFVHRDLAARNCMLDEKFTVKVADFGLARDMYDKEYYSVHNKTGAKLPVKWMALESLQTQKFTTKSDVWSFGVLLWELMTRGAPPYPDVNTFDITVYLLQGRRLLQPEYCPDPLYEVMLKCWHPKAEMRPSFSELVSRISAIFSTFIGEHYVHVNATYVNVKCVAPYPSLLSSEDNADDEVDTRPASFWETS
ASSAY SUMMARY: Met autophosphorylation ELISA in PC-3 cells
Format: cell-based
Set-up: endogenous in cells; host or cells: PC-3 prostate cancer cells (ATCC #CRL-1435)
ASSAY CONDITIONS: Table 3 Cellular Activities, HGF-stimulated, phospho-Met ELISA, read-out: c-Met IC50

Completed entries (count: 6):
>>> print(df.to_string())
                                   molecule    result
0  COc1cc2nccc(Oc3ccc(NC(=O)c4c(C)ncc(-c5cc(C)cs5)c4O)cc3F)c2nc1OC [Compound 125]  ≤ 100 nM
1  CCc1c(C(=O)Nc2ccc(Oc3ccnc4cc(OCCOC)c(OC)nc34)c(F)c2)c(=O)c(-c2ccco2)c(C)n1C [Compound 326]  ≤ 100 nM
2  COc1cc2nccc(Oc3ccc(NC(=O)c4nnc(C)c(-c5ccc(F)cn5)c4OC)cc3F)c2nc1OC [Compound 215]  ≤ 100 nM
3  COc1cc2nccc(Oc3ccc(NC(=O)c4c(C)nc(C)c(-c5cc(C)cs5)c4O)cc3F)c2nc1OC [Compound 137]  ≤ 100 nM
4  COCc1nc(C)c(-c2ccnc(C)c2)c(O)c1C(=O)Nc1ccc(Oc2ccnc3cc(OC)c(OC)nc23)c(F)c1 [Compound 198]  ≤ 100 nM
5  COc1cc2nccc(Oc3ccc(NC(=O)c4c5n(cc(-c6ccsc6)c4=O)CCOC5)cc3)c2nc1OC [Compound 301]  ≤ 100 nM

Attention now turns to another entry.
Field IC50 (system: Met (Homo sapiens)) for entry COc1cc2nccc(Oc3ccc(NC(=O)c4ccc(C)n(-c5cc[n+]([O-])cc5)c4=O)cc3F)c2nc1OC [Compound 231] = ≤ 100 nM
